# Measurement Target: AVP-V2 sites (Rattus norvegicus, UniProt Q00788)
# Construct: male rat liver (AVP-V1 sites) or kidney medulla (AVP-V2 sites); from tissue; host or cells: male rat kidney medulla, crude membranes
# Sequence (Q00788 whole entry): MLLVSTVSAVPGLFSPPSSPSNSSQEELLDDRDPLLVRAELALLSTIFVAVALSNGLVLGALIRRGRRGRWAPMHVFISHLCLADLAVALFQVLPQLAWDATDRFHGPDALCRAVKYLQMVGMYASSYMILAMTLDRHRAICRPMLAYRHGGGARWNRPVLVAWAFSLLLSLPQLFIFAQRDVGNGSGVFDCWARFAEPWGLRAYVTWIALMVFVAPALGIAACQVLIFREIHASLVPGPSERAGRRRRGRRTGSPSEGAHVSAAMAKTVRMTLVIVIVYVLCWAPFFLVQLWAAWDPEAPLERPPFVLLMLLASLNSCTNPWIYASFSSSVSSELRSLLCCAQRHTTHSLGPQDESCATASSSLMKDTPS
# Experimental Details: [^3 H]AVP binding to crude membrane preparation of male rat kidney medulla (AVP-V2 sites)
# Assay Setup: rat kidney medulla membranes, 2 nM [^3 H]AVP; read-out: Receptor Binding Results IC50 (nM) [^3 H]-AVP-V2
Square brackets hold non-standard residues; d marks the D form. Peptide text beside a SMILES is read from it. * marks the point of attachment. dNMeF = CN[C@H](Cc1ccccc1)C(=O)O; dPip = O=C(O)[C@H]1CCCCN1; Orn = NCCC[C@H](N)C(=O)O; Cbz = O=C(OCc1ccccc1)*
Assay Metric: IC50 (nM)
One number for each entry, in nM.

| Compound | IC50 / nM |
| --- | --- |
| CC[C@H](C)[C@@H]1NC(=O)[C@@H](Cc2ccc(O)cc2)NC(=O)[C@@H]2CCCN2C(=O)[C@@H](Cc2ccccc2)N(C)C(=O)[C@H](CCCCN)NC(=O)[C@H]2CCCCN2C1=O [Example 147] (cyclo(I[dPip]K[dNMeF]P[dY])) | 10000 |

Consider the record given below.
Item: CC[C@H](C)[C@@H]1NC(=O)[C@@H](Cc2c[nH]c3ccccc23)NC(=O)[C@@H]2CCCN2C(=O)[C@@H](Cc2c[nH]c3ccccc23)NC(=O)[C@H](CCCNC(=O)OCc2ccccc2)NC(=O)[C@H]2CCCCN2C1=O [Example 36] (cyclo(I[dPip][Orn](Cbz)[dW]P[dW])) | IC50: 10000

###

# Measurement Target: AVP-V1 sites (Rattus norvegicus, UniProt P30560)
# Construct: crude membrane preparation of male rat liver (AVP-V1 sites); from tissue; host or cells: male rat liver, crude membranes
# Sequence (P30560 whole entry): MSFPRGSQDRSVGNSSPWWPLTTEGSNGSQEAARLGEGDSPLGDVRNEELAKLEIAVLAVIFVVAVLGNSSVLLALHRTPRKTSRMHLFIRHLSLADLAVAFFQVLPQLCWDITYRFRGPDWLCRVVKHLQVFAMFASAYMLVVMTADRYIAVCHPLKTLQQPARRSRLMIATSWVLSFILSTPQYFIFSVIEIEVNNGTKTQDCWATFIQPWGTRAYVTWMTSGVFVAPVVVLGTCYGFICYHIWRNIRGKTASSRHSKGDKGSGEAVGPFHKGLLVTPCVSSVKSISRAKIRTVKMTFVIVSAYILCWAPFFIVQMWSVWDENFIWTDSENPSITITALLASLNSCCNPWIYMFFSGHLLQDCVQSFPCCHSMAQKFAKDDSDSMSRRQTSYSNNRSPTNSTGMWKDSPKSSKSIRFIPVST
# Experimental Details: [^3 H]AVP binding to crude membrane preparation of male rat liver (AVP-V1 sites)
# Assay Setup: Receptor Binding Results IC50 (nM) [^3 H]-AVP-V1
Numbered stars: 1 amine (or outer) side, 2 acyl side, 3 side chain; on linkers, the order of the positions; unused ones are H or OH. Square brackets hold non-standard residues; d marks the D form. Peptide text beside a SMILES is read from it. X5 = CC(C)(C)OC(=O)CN1CCN([*:1])[C@H](C(=O)[*:2])C1; dNMeF = CN[C@H](Cc1ccccc1)C(=O)O; Pip = O=C(O)[C@@H]1CCCCN1; dPip = O=C(O)[C@H]1CCCCN1; dNMeA = CN[C@H](C)C(=O)O
Assay Metric: IC50

As a guide, the following entries are already answered.
| Compound | IC50 |
| --- | --- |
| CC[C@H](C)[C@@H]1NC(=O)[C@@H](Cc2ccccc2)NC(=O)[C@@H]2CCCN2C(=O)C(Cc2cccnc2)NC(=O)[C@@H]2CCCCN2C(=O)[C@H]2CCCCN2C1=O (single isomer, unassigned) [Example 10 (isomer 1)] | > 10000 nM |
| CC[C@H](C)[C@@H]1NC(=O)[C@@H](Cc2c[nH]c3ccccc23)NC(=O)[C@@H]2CCCN2C(=O)[C@@H](Cc2c[nH]c3ccccc23)NC(=O)[C@@H]2CN(CC(=O)OC(C)(C)C)CCN2C(=O)[C@H]2CCCCN2C1=O [Example 162] (cyclo([dW]I[dPip][X5][dW]P)) | > 10000 nM |
| CC[C@H](C)[C@@H]1NC(=O)[C@@H](C)N(C)C(=O)[C@@H]2CCCN2C(=O)[C@@H](Cc2ccccc2)N(C)C(=O)[C@@H]2CCCCN2C(=O)[C@H]2CCCCN2C1=O [Example 167] (cyclo(I[dPip][Pip][dNMeF]P[dNMeA])) | > 10000 nM |

# compound CC(C)C[C@@H]1NC(=O)[C@@H](Cc2c[nH]c3ccccc23)NC(=O)[C@@H]2CCCN2C(=O)[C@@H](Cc2c[nH]cn2)NC(=O)[C@@H]2CCCCN2C(=O)[C@H]2CCCCN2C1=O [Example 21] (cyclo(L[dPip][Pip][dH]P[dW])) ; its IC50 = 10000 nM

###

# Measurement Target: uterine OT receptors (Rattus norvegicus, UniProt P70536)
# Construct: from tissue; host or cells: uterus of DES-treated rats, crude membranes
# Sequence (P70536 whole entry): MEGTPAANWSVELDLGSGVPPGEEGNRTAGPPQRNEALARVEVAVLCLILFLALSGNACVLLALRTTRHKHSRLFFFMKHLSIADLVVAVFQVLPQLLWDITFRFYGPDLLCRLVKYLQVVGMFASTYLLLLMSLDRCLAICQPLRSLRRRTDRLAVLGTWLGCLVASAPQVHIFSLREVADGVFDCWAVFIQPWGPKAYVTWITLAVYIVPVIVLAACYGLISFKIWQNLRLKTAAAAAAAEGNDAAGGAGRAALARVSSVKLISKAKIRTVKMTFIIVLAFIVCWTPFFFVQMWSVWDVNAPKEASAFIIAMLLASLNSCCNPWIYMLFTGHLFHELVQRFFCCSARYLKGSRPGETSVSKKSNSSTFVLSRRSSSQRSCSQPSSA
# Experimental Details: [^3 H]OT binding to uterine OT receptors, crude membrane preparation of uteri from DES-treated rats
# Assay Setup: rat uterus membranes, 1 nM [^3 H]OT; read-out: Receptor Binding Results IC50 (nM) [^3 H]OT
Numbered stars: 1 amine (or outer) side, 2 acyl side, 3 side chain; on linkers, the order of the positions; unused ones are H or OH. Square brackets hold non-standard residues; d marks the D form. Peptide text beside a SMILES is read from it. X12 = O=C([C@@H]1CCCNN1[*:1])[*:2]; X6 = O=C([C@H]1CCCNN1[*:1])[*:2]; dNMeF = CN[C@H](Cc1ccccc1)C(=O)O; Chg = N[C@H](C(=O)O)C1CCCCC1
Assay Metric: IC50 (nM)
Numbers only, in nM.

Completed entries (count: 2):
| Compound | Unit Descriptor | IC50 |
| --- | --- | --- |
| CC[C@H](C)[C@@H]1NC(=O)[C@@H](Cc2ccccc2)NC(=O)[C@@H]2CCCN2C(=O)[C@@H](Cc2ccccc2)N(C)C(=O)[C@H](CO)NC(=O)[C@H]2CCCN2C1=O [Example 114] (cyclo(I[dP]S[dNMeF]P[dF])) | nM | 675 |
| O=C1N[C@@H](C2CCCCC2)C(=O)N2CCC[C@@H]2C(=O)N2CCC[C@H]2C(=O)N[C@H](Cc2ccccc2)C(=O)N2CCC[C@H]2C(=O)N[C@@H]1Cc1ccccc1 [Example 67] (cyclo([dF]P[dF][Chg][dP]P)) | nM | 10000 |

The compound listed as CC[C@H](C)[C@@H]1NC(=O)[C@@H](Cc2ccccc2)NC(=O)[C@@H]2CCCN2C(=O)[C@@H](Cc2ccccc2)NC(=O)[C@@H]2CCCNN2C(=O)[C@H]2CCCNN2C1=O [Example 96] (cyclo(I[X6][X12][dF]P[dF])) has a reported IC50 of 245

###

# Measurement Target: AVP-V1 sites (Rattus norvegicus)
# Construct: crude membrane preparation of male rat liver (AVP-V1 sites); from tissue; host or cells: male rat liver, crude membranes
# Experimental Details: [^3 H]AVP binding to crude membrane preparation of male rat liver (AVP-V1 sites)
# Assay Setup: Receptor Binding Results IC50 (nM) [^3 H]-AVP-V1
Square brackets hold non-standard residues; d marks the D form. Peptide text beside a SMILES is read from it. * marks the point of attachment. d2Nal = N[C@H](Cc1ccc2ccccc2c1)C(=O)O; dNMeF = CN[C@H](Cc1ccccc1)C(=O)O; dPip = O=C(O)[C@H]1CCCCN1; Boc = CC(C)(C)OC(=O)*
Assay Metric: IC50 (nM)
Numbers only, in nM.

Field IC50 (entry CC[C@H](C)[C@@H]1NC(=O)[C@@H](Cc2ccc3ccccc3c2)NC(=O)[C@@H]2CCCN2C(=O)[C@@H](Cc2ccccc2)N(C)C(=O)[C@H](CCCCNC(=O)OC(C)(C)C)NC(=O)[C@H]2CCCCN2C1=O [Example 138] (cyclo(I[dPip]K(Boc)[dNMeF]P[d2Nal])) ) reads 10000

###

# Measurement Target: AVP-V1 sites (Rattus norvegicus, UniProt P30560)
# Construct: crude membrane preparation of male rat liver (AVP-V1 sites); from tissue; host or cells: male rat liver, crude membranes
# Experimental Details: [^3 H]AVP binding to crude membrane preparation of male rat liver (AVP-V1 sites)
# Assay Setup: Receptor Binding Results IC50 (nM) [^3 H]-AVP-V1
Square brackets hold non-standard residues; d marks the D form. Peptide text beside a SMILES is read from it. * marks the point of attachment. dPhe(4-NO2) = N[C@H](Cc1ccc([N+](=O)[O-])cc1)C(=O)O; Ethyl(2-morpholino) = C1CN(CC*)CCO1; dNMeY = CN[C@H](Cc1ccc(O)cc1)C(=O)O; dNMeF = CN[C@H](Cc1ccccc1)C(=O)O; Pip = O=C(O)[C@@H]1CCCCN1; dPip = O=C(O)[C@H]1CCCCN1; Boc = CC(C)(C)OC(=O)*
Assay Metric: IC50

The following compounds have reported results that may help.
| Compound | Experimental Value |
| --- | --- |
| CC[C@H](C)[C@@H]1NC(=O)[C@@H](Cc2ccccc2)NC(=O)[C@@H]2CCCN2C(=O)[C@@H](Cc2ccc(OCCN3CCOCC3)cc2)N(C)C(=O)[C@@H]2CCCCN2C(=O)[C@H]2CCCCN2C1=O [Example 50] (cyclo(I[dPip][Pip][dNMeY](Ethyl(2-morpholino))P[dF])) | > 10000 nM |
| CC[C@H](C)[C@@H]1NC(=O)[C@@H](Cc2ccc(O)cc2)NC(=O)[C@@H]2CCCN2C(=O)[C@@H](Cc2ccccc2)N(C)C(=O)[C@H](CCCCNC(=O)OC(C)(C)C)NC(=O)[C@H]2CCCCN2C1=O [Example 148] (cyclo(I[dPip]K(Boc)[dNMeF]P[dY])) | > 10000 nM |
| CC[C@H](C)[C@@H]1NC(=O)[C@@H](Cc2ccccc2)NC(=O)[C@@H]2CCCN2C(=O)[C@@H](Cc2ccc([N+](=O)[O-])cc2)NC(=O)[C@@H]2CCCCN2C(=O)[C@H]2CCCCN2C1=O [Example 47] (cyclo(I[dPip][Pip][dPhe(4-NO2)]P[dF])) | > 1000 nM |

// IC50 value for CCOc1ccc(C[C@H]2NC(=O)[C@@H]3CCCN3C(=O)[C@@H](Cc3ccccc3)N(C)C(=O)[C@@H]3CCCCN3C(=O)[C@H]3CCCCN3C(=O)[C@H]([C@@H](C)CC)NC2=O)cc1 [Example 122] (cyclo(I[dPip][Pip][dNMeF]P[dY](Et))) : > 10000 nM
